Items are presented alongside their recorded T½.
- STUDY_SYSTEM: T1, Dimeric human CD48-mFc (human)
- T1 chain: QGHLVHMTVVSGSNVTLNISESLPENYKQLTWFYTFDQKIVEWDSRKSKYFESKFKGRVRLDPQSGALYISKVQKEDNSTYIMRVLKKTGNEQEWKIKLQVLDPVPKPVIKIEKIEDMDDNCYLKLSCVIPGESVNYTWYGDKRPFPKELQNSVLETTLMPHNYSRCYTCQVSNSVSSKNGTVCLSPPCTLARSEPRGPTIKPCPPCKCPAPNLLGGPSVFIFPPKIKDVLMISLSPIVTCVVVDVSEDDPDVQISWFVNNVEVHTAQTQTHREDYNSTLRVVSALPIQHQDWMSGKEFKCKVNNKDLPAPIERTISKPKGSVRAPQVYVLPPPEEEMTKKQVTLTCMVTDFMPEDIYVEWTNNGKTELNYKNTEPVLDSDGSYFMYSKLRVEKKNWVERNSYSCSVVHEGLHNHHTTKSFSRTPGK
- ASSAY_TEXT: SPR (Biacore T100), 25 C, antibody captured by anti-Fc, dimeric CD48-mFc in solution
Number in h, nothing else.

Study these solved cases before continuing.
{"columns": ["BINDER", "PROPERTY_LABEL", "REPORTED_MEASUREMENT"],
 "data": [
  ["H2M1763N (antibody, mouse IgG2, V domains shown, Human variable domains, mouse IgG2 Fc (prefix H2M)) VH: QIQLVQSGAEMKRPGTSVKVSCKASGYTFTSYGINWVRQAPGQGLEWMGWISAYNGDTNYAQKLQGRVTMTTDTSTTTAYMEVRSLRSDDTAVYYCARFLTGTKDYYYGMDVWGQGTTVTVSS VL: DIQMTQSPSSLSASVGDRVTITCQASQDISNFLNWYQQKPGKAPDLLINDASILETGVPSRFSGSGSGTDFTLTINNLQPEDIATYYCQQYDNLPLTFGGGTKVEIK", "T½", 0.383],
  ["H4H1775P (antibody, human IgG4, V domains shown, Human IgG4 Fc (prefix H4H)) VH: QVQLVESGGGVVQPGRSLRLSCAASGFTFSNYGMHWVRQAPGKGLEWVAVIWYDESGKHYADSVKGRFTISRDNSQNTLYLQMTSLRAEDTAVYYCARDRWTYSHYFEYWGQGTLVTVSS VL: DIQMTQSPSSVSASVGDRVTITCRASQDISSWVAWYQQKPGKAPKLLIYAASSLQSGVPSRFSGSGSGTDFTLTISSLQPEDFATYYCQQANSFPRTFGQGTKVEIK", "T½", 14.7]
]}

Enquiry: Data request, read-out T½, for H4H1774P (antibody, human IgG4, V domains shown, Human IgG4 Fc (prefix H4H)) VH: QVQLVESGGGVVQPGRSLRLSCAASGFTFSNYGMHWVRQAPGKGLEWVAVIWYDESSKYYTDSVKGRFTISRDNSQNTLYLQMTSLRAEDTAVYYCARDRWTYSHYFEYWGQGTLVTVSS VL: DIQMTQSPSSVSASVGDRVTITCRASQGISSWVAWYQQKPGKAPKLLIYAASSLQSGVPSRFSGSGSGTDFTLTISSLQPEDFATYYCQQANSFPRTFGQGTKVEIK
Return: 41.4
